Biological target: SARS-CoV-2 S1 subunit (Severe acute respiratory syndrome coronavirus 2)
Construct: 50 μL of S1-subunit protein solution (0.1 mg·mL^−1, Genscript Z03501)
Assay: biochemical
assayReadout: Kd (µM)
Numbers only, in µM.

[in] Name the value of Kd reported for CC(=O)N[C@H]1C([C@H](O)[C@H](O)COC(C)=O)O[C@](O)(C(=O)O)C[C@H]1O (stereo partly shown) when tested on SARS-CoV-2 S1 subunit (Severe acute respiratory syndrome coronavirus 2).
[out] 5.7
